target: CYP3A4 (Homo sapiens, UniProt P08684); assay: Inhibition of CYP3A4 (unknown origin)-mediated midazolam hydroxylation to 1'-Hydroxymidazolam at 10 uM relative to control; assay type: ADME; details: probe midazolam
Sequence (P08684 whole entry): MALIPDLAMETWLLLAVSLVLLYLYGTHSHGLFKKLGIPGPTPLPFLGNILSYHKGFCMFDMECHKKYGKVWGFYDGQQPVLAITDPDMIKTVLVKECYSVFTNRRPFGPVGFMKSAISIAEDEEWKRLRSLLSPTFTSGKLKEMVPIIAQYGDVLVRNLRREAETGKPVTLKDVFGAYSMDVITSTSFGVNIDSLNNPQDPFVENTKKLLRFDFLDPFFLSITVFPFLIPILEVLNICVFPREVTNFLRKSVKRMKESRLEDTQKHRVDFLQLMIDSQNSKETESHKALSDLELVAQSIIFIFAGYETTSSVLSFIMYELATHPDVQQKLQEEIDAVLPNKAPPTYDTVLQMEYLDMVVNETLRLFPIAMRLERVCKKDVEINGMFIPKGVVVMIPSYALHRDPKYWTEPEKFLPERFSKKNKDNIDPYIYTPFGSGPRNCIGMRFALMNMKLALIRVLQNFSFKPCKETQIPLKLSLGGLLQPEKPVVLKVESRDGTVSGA
readout: inhibition at 10 µM (%)
Give bare numbers, in %.

Use these answered entries as a reference point.
compound: COc1cccc(CN(C)C(=O)Nc2ccc(-c3cn[nH]c3)cc2)c1
tgt: CYP3A4 (Homo sapiens, UniProt P08684)
result value: 27
//
compound: COc1cccc(CN(CCN(C)C)C(=O)Nc2ccc(-c3cn[nH]c3)cc2)c1
tgt: CYP3A4 (Homo sapiens, UniProt P08684)
result value: 34
//
compound: COc1cccc(C(CCO)NC(=O)Nc2ccc(-c3cn[nH]c3)cc2)c1 (stereo not given)
tgt: CYP3A4 (Homo sapiens, UniProt P08684)
result value: 37
//
compound: COc1cccc(CN(CCN2CCCCC2)C(=O)Nc2ccc(-c3cn[nH]c3)cc2)c1
tgt: CYP3A4 (Homo sapiens, UniProt P08684)
result value: 61

-- ask Could you share what inhibition at 10 µM was measured for CN(C)CCC(NC(=O)Nc1ccc(-c2cn[nH]c2)cc1)c1ccccc1 (stereo not given) , tested on CYP3A4 (Homo sapiens, UniProt P08684)?
-- reply 10

###

molecular target: CYP2C9 (Homo sapiens, UniProt P11712); assay: Inhibition of CYP2C9 (unknown origin)-mediated tolbutamide hydroxylation to hydroxy tolbutamide at 10 uM relative to control; type: ADME; conditions: probe tolbutamide
Sequence (P11712 whole entry): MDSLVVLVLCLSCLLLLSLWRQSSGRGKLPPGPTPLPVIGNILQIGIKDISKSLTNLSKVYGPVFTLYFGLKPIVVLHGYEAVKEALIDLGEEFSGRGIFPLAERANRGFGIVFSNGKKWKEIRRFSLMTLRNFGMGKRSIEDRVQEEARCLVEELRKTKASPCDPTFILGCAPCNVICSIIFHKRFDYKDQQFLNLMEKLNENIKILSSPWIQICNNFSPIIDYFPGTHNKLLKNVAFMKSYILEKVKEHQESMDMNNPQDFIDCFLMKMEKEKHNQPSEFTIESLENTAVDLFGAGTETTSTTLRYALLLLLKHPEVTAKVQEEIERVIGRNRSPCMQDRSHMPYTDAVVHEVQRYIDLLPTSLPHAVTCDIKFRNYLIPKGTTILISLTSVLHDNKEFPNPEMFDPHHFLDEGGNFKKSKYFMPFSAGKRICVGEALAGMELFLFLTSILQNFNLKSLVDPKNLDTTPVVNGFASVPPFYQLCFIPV
Exercise: state measured inhibition at 10 µM for each of the compounds provided.
One number for each entry, in %.

compound: COc1cccc(CN(CCN(C)C)C(=O)Nc2ccc(-c3cn[nH]c3)cc2)c1
inhibition at 10 µM, %: 35
--
compound: O=C(Nc1ccc(-c2cn[nH]c2)cc1)N(CCO)Cc1ccccc1
inhibition at 10 µM, %: 93
--
compound: COc1cccc(CN(CCO)C(=O)Nc2ccc(-c3cn[nH]c3)cc2)c1
inhibition at 10 µM, %: 95
--
compound: COc1cccc(CN(CCN2CCCC2)C(=O)Nc2ccc(-c3cn[nH]c3)cc2)c1
inhibition at 10 µM, %: 24
--
compound: COc1cccc(CN(CCN2CCCCC2)C(=O)Nc2ccc(-c3cn[nH]c3)cc2)c1
inhibition at 10 µM, %: 56
--
compound: CCN(Cc1cccc(OC)c1)C(=O)Nc1ccc(-c2cn[nH]c2)cc1O[C@H]1CCN(C)C1
inhibition at 10 µM, %: 65

Give inhibition at 10 µM for each listed item.
1. COc1cccc(CN(CCN(C)C)C(=O)Nc2ccc(-c3cn[nH]c3)cn2)c1
2. COc1cccc(CN(C)C(=O)Nc2ccc(-c3cn[nH]c3)cc2)c1
3. COc1cccc(C(CCO)NC(=O)Nc2ccc(-c3cn[nH]c3)cc2)c1 (configuration not stated)
4. CN(C)CCC(NC(=O)Nc1ccc(-c2cn[nH]c2)cc1)c1ccccc1 (configuration not stated)
5. COc1cccc(CN(CCN2CCOCC2)C(=O)Nc2ccc(-c3cn[nH]c3)cc2)c1
6. O=C(Nc1ccc(-c2cn[nH]c2)cc1)NC(CCO)c1cccc(F)c1 (configuration not stated)

-- reply
1: 5; 2: 96; 3: 67; 4: 16; 5: 68; 6: 71

###

test: Cmax in Sprague-Dawley rat at 1 mg/kg, iv by LC-MS/MS analysis; assay type: ADME, organism-based; set-up: dose 1 mg/kg, route intravenous; settings: in vivo
readout: log10(Cmax) (log10 of the value in nM)
Quick note: numbers are log10 of Cmax, with nM as the unit.

Some compounds with recorded log10(Cmax):
compound: COc1cccc(CN(CCN(C)C)C(=O)Nc2ccc(-c3cn[nH]c3)cc2)c1
log10(Cmax): 2.52
--
compound: COc1cccc(CN(CCO)C(=O)Nc2ccc(-c3cn[nH]c3)cc2)c1
log10(Cmax): 3.58
--
compound: COc1cccc(CN(CCN2CCOCC2)C(=O)Nc2ccc(-c3cn[nH]c3)cc2)c1
log10(Cmax): 3.08
--
compound: COc1cccc(C(CCO)NC(=O)Nc2ccc(-c3cn[nH]c3)cc2)c1 (stereo unspecified)
log10(Cmax): 4.08
--
compound: O=C(Nc1ccc(-c2cn[nH]c2)cc1)N(CCO)Cc1ccccc1
log10(Cmax): 3.04

-- ask Request the reported log10(Cmax) associated with "COc1cccc(CN(CCN2CCCCC2)C(=O)Nc2ccc(-c3cn[nH]c3)cc2)c1"
-- reply 2.72

###

molecular target: CYP2D6 (Homo sapiens); assay: Inhibition of CYP2D6 (unknown origin)-mediated bufuralol hydroxylation to 4'-Hydroxybufuralol at 10 uM relative to control; assay type: ADME; conditions: probe bufuralol
Sequence (P10635 whole entry): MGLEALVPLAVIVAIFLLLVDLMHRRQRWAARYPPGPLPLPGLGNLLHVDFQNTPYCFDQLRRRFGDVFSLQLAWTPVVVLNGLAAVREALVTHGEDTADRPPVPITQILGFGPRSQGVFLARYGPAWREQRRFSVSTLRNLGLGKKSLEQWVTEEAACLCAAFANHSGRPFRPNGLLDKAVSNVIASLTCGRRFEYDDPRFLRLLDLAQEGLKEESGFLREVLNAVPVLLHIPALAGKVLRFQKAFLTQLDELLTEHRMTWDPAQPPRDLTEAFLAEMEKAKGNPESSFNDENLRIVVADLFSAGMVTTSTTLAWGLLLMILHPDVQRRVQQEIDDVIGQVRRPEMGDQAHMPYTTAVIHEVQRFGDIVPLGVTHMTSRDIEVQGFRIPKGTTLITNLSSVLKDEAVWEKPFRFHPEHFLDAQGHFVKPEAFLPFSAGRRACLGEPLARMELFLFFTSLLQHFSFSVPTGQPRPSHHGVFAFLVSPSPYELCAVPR
1 means recorded inhibition at 10 µM is 40% or above; 0 means it is below 40%.

Answered examples (10):
molecule: COc1cccc(CN(CCN2CCCCC2)C(=O)Nc2ccc(-c3cn[nH]c3)cc2)c1
tgt: CYP2D6 (Homo sapiens)
category: 1

molecule: COc1cccc(CN(CCN2CCOCC2)C(=O)Nc2ccc(-c3cn[nH]c3)cc2)c1
tgt: CYP2D6 (Homo sapiens)
category: 1

molecule: COc1cccc(CN(CCN(C)C)C(=O)Nc2ccc(-c3cn[nH]c3)cn2)c1
tgt: CYP2D6 (Homo sapiens)
category: 1

molecule: CN(C)CCC(NC(=O)Nc1ccc(-c2cn[nH]c2)cc1)c1ccccc1 (configuration not stated)
tgt: CYP2D6 (Homo sapiens)
category: 1

molecule: COc1cccc(CN(CCN2CCCC2)C(=O)Nc2ccc(-c3cn[nH]c3)cc2)c1
tgt: CYP2D6 (Homo sapiens)
category: 1

molecule: COc1cccc(CN(CCO)C(=O)Nc2ccc(-c3cn[nH]c3)cc2)c1
tgt: CYP2D6 (Homo sapiens)
category: 0

molecule: O=C(Nc1ccc(-c2cn[nH]c2)cc1)N(CCO)Cc1ccccc1
tgt: CYP2D6 (Homo sapiens)
category: 0

molecule: COc1cccc(CN(C)C(=O)Nc2ccc(-c3cn[nH]c3)cc2)c1
tgt: CYP2D6 (Homo sapiens)
category: 1

molecule: CCN(Cc1cccc(OC)c1)C(=O)Nc1ccc(-c2cn[nH]c2)cc1O[C@H]1CCN(C)C1
tgt: CYP2D6 (Homo sapiens)
category: 1

molecule: COc1cccc(CN(CCN(C)C)C(=O)Nc2ccc(-c3cn[nH]c3)cc2)c1
tgt: CYP2D6 (Homo sapiens)
category: 1

Would you kindly look at the next entry?
-- ask Does the molecule COc1cccc(C(CCO)NC(=O)Nc2ccc(-c3cn[nH]c3)cc2)c1 (configuration not stated) have recorded inhibition at 10 µM that is 40% or more?
-- reply 0

###

Recorded IC50 values (Rho-associated protein kinase 2 (Homo sapiens)) are given below.
One number for each entry, in nM.

Example cases with answers are listed next.
molecule: O=C(Nc1ccc(-c2cn[nH]c2)cc1)N(CCO)Cc1ccccc1
units text: nM
IC50: 12

molecule: COc1cccc(CN(CCN2CCOCC2)C(=O)Nc2ccc(-c3cn[nH]c3)cc2)c1
units text: nM
IC50: 13

molecule: COc1cccc(CN(CCN(C)C)C(=O)Nc2ccc(-c3cn[nH]c3)cc2)c1
units text: nM
IC50: 1

molecule: CN(C)CCC(NC(=O)Nc1ccc(-c2cn[nH]c2)cc1)c1ccccc1 (stereo not given)
units text: nM
IC50: 2

molecule: CCN(Cc1cccc(OC)c1)C(=O)Nc1ccc(-c2cn[nH]c2)cc1
units text: nM
IC50: 1

For each of the molecules below, state IC50.
1. COc1cccc(CNC(=O)Nc2ccc(-c3cn[nH]c3)cc2)c1OC
2. COc1cccc(CN(CCO)C(=O)Nc2ccc(-c3cn[nH]c3)cc2)c1
3. CCN(Cc1cccc(OC)c1)C(=O)Nc1ccc(-c2cn[nH]c2)cc1O[C@H]1CCN(C)C1
4. COc1cccc(CN(CCCN2CCCCC2)C(=O)Nc2ccc(-c3cn[nH]c3)cc2)c1

-- reply
253
1
1
4

###

molecular target: CYP3A4 (Homo sapiens); test: Inhibition of CYP3A4 (unknown origin)-mediated midazolam hydroxylation to 1'-Hydroxymidazolam at 10 uM relative to control; type: ADME; conditions: probe midazolam
readout: inhibition at 10 µM (%)
Answers are plain numbers, in %.

Examples with answers:
molecule: COc1cccc(CN(CCN2CCOCC2)C(=O)Nc2ccc(-c3cn[nH]c3)cc2)c1
tgt: CYP3A4 (Homo sapiens)
result value: 51

molecule: O=C(Nc1ccc(-c2cn[nH]c2)cc1)NC(CCO)c1cccc(F)c1 (configuration not stated)
tgt: CYP3A4 (Homo sapiens)
result value: 23

molecule: COc1cccc(CN(CCN2CCCC2)C(=O)Nc2ccc(-c3cn[nH]c3)cc2)c1
tgt: CYP3A4 (Homo sapiens)
result value: 34

molecule: CCN(Cc1cccc(OC)c1)C(=O)Nc1ccc(-c2cn[nH]c2)cc1O[C@H]1CCN(C)C1
tgt: CYP3A4 (Homo sapiens)
result value: 53

molecule: COc1cccc(CN(CCN(C)C)C(=O)Nc2ccc(-c3cn[nH]c3)cn2)c1
tgt: CYP3A4 (Homo sapiens)
result value: 8

Would you mind giving inhibition at 10 µM for every molecule in the list below?
1. COc1cccc(CN(CCO)C(=O)Nc2ccc(-c3cn[nH]c3)cc2)c1
2. O=C(Nc1ccc(-c2cn[nH]c2)cc1)N(CCO)Cc1ccccc1

-- reply
[37, 15]

Measured values drawn from ChEMBL document CHEMBL2331531 for this set.
